- tested system: Aurora B (Homo sapiens, UniProt Q96GD4)
- Construct: cell lysates from Jurkat cells (ATCC TIB-152) used; endogenous in cells; host or cells: Jurkat cells (ATCC TIB-152), treated with pervanadate
- Sequence (Q96GD4 whole entry): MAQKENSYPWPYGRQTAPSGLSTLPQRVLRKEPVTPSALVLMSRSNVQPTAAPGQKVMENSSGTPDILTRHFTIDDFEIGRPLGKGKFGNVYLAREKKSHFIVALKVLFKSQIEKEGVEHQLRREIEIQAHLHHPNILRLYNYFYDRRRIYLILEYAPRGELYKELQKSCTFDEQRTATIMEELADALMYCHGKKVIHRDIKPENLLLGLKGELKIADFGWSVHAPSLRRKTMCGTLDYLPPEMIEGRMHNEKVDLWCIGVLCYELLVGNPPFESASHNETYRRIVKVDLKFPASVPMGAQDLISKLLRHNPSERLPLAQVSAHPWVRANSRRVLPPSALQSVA
- procedure details: Kinobeads assay, Aurora B
- Format: binding
property measured: JAK3/AurB Fold Selectivity

Cn1cc(Nc2ncc3cnn(Cc4cc(N5CCNCC5=O)cc(F)c4F)c3n2)cn1 [Example 71]
10-50 Fold

Request: Quickly give me recorded JAK3/AurB Fold Selectivity for Fc1cc(N2CCOCC2)c(F)c(Cn2ncc3cnc(Nc4cn[nH]c4)nc32)c1F [Example 81]
Response: 10-50 Fold

Request: Quickly give me recorded JAK3/AurB Fold Selectivity for Cn1cc(Nc2ncc3cnn(Cc4cc(-c5cnn(C)c5)cc(F)c4F)c3n2)cn1 [Example 126]
Response: >50 Fold

Request: Quickly give me recorded JAK3/AurB Fold Selectivity for Cn1cc(Nc2ncc3cnn(Cc4cccc(C5CCOCC5)c4)c3n2)cn1 [Example 9]
Response: 10-50 Fold

Request: Quickly give me recorded JAK3/AurB Fold Selectivity for Cn1cc(Nc2ncc3cnn(Cc4c(F)c(F)cc(N5CCNCC5)c4F)c3n2)cn1 [Example 66]
Response: 3-10 Fold

###

- tested system: Aurora A (Homo sapiens, UniProt O14965)
- Construct: cell lysates from Jurkat cells (ATCC TIB-152) used; endogenous in cells
- procedure details: Kinobeads assay, Aurora A
- test parameters: lysate of pervanadate-treated Jurkat cells, read-out: Inhibition values (IC50) Aur A
Collected IC50 values appear next to each entry.

Request: Quickly give me recorded IC50 for "Cn1cc(-c2cccc(Cn3ncc4cnc(Nc5cnn(CCO)c5)nc43)c2)cn1"
Response: 100 to 1000 nM

Request: Quickly give me recorded IC50 for "OCCn1cc(Nc2ncc3cnn(Cc4c(F)c(F)cc(N5CCOCC5)c4F)c3n2)cn1"
Response: 100 to 1000 nM

Request: Quickly give me recorded IC50 for "Cn1cc(Nc2ncc3cnn(Cc4cccc(N5CCCCC5)c4)c3n2)cn1"
Response: 1000 to 10000 nM

Request: Quickly give me recorded IC50 for "Cn1cc(Nc2ncc3cnn(Cc4cc(F)cc(N5CCOCC5=O)c4)c3n2)cn1"
Response: 100 to 1000 nM

###

Collected JAK3/AurA Fold Selectivity values appear next to each entry.
- tested system: Aurora A (Homo sapiens, UniProt O14965)
- Construct: cell lysates from Jurkat cells (ATCC TIB-152) used; endogenous in cells; host or cells: Jurkat cells (ATCC TIB-152), treated with pervanadate
- Sequence (O14965 1-403): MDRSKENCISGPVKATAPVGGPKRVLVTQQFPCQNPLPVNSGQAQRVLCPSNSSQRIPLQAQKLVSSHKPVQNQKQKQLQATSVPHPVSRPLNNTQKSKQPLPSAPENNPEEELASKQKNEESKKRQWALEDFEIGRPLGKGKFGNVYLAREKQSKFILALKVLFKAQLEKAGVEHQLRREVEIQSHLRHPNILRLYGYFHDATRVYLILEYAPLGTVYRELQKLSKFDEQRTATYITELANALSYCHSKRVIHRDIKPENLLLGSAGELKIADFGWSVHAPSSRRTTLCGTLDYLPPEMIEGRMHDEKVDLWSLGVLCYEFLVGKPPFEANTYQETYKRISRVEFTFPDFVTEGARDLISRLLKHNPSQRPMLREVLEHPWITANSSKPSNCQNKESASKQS
- procedure details: Kinobeads assay, Aurora A
- Format: binding

Cn1cc(Nc2ncc3cnn(Cc4cc(F)cc(N5CCNCC5=O)c4)c3n2)cn1
10-50 Fold

Request: Quickly give me recorded JAK3/AurA Fold Selectivity for "Cn1cc(Nc2ncc3cnn(Cc4cccc(N5CCNCC5=O)c4F)c3n2)cn1"
Response: >50 Fold

Request: Quickly give me recorded JAK3/AurA Fold Selectivity for "CNC(=O)CCn1cc(Nc2ncc3cnn(Cc4cccc(N5CCOCC5)c4)c3n2)cn1"
Response: 10-50 Fold

Request: Quickly give me recorded JAK3/AurA Fold Selectivity for "C[C@@H]1COCCN1c1cccc(Cn2ncc3cnc(Nc4cnn(C)c4)nc32)c1"
Response: >50 Fold

Request: Quickly give me recorded JAK3/AurA Fold Selectivity for "O=C(CCn1cc(Nc2ncc3cnn(Cc4cccc(N5CCOCC5)c4)c3n2)cn1)N1CCCCC1"
Response: 10-50 Fold

Request: Quickly give me recorded JAK3/AurA Fold Selectivity for "Cn1cc(Nc2ncc3cnn(Cc4cccc(CN5CCOCC5)c4)c3n2)cn1"
Response: 10-50 Fold
